Measured viability at 28.5 h, 10 µM values are reported for all entries that follow.
# test-name: in vitro
# measurement-conditions: human, hela cells, % viability

>  <compound>
c1ccc(CN2CCC(NCc3ccco3)C(c3ccccc3)C2)cc1 (stereo not drawn)

>  <viability at 28.5 h, 10 µM [%]>
95.4

$$$$
>  <compound>
O=C(c1n[nH]c2c1CCCC2)N1CC(=O)N(CCc2ccccc2)C(=O)C1

>  <viability at 28.5 h, 10 µM [%]>
98.3

$$$$
>  <compound>
Cc1ccc(NC(=O)CSc2nc3ccccc3c(=O)n2Cc2ccco2)cc1Cl

>  <viability at 28.5 h, 10 µM [%]>
102

$$$$
>  <compound>
NS(=O)(=O)c1ccc(S(=O)(=O)N2CCN(C/C=C/c3ccccc3)CC2)cc1 [CBK266723C]

>  <viability at 28.5 h, 10 µM [%]>
95.8

$$$$
>  <compound>
Cc1ccc(NC(=O)CN(C)C)c(C)n1

>  <viability at 28.5 h, 10 µM [%]>
99.6

$$$$
>  <compound>
COc1ccc(C(C)NC(=O)c2cn[nH]c2-c2ccc(Cl)cc2)cc1 (stereo not drawn)

>  <viability at 28.5 h, 10 µM [%]>
102

$$$$
>  <compound>
COc1ccc(-c2cc(N3CCC(N4CCCCC4)CC3)ncn2)cc1OC

>  <viability at 28.5 h, 10 µM [%]>
90

$$$$
>  <compound>
CC1CCCN(CC(C)(C)NC(=O)c2cc(C3CC3)on2)C1 (stereo not drawn)

>  <viability at 28.5 h, 10 µM [%]>
94.6

$$$$
>  <compound>
c1ccc(-c2onc3cc4c(cc23)OCCO4)cc1

>  <viability at 28.5 h, 10 µM [%]>
82.8

$$$$
>  <compound>
CC(C)(C)OC(=O)c1cc(C(=O)O)ccc1O

>  <viability at 28.5 h, 10 µM [%]>
90

$$$$
>  <compound>
O=c1ccc2ccc(-c3ccsc3)nc2[nH]1

>  <viability at 28.5 h, 10 µM [%]>
97

$$$$
>  <compound>
O=C(c1ccc(COc2ccc(I)cc2)cc1)N1CCCCCC1

>  <viability at 28.5 h, 10 µM [%]>
83.4

$$$$
>  <compound>
Cc1cc(S(=O)(=O)Nc2ccnn2C(C)C)ccc1F

>  <viability at 28.5 h, 10 µM [%]>
96.9

$$$$
>  <compound>
Cc1cc(CNC(=O)c2cc3ccc(Cl)cc3[nH]2)[nH]n1

>  <viability at 28.5 h, 10 µM [%]>
87.8

$$$$
>  <compound>
CC(C)NC(=O)C1CC2CCC1CC21NC(=O)c2ccccc2O1 (stereo not drawn)

>  <viability at 28.5 h, 10 µM [%]>
83.5

$$$$
>  <compound>
Cc1nn(Cc2nnc(SCC(=O)C(C)(C)C)o2)c(C)c1Br

>  <viability at 28.5 h, 10 µM [%]>
92.1

$$$$
>  <compound>
Cc1ccc(Oc2ccc([N+](=O)[O-])cc2)c(Br)c1

>  <viability at 28.5 h, 10 µM [%]>
90.6

$$$$
>  <compound>
Cn1nccc1CN1CCCC(Cc2nc3ccccc3[nH]2)C1 (stereo not drawn)

>  <viability at 28.5 h, 10 µM [%]>
98.2

$$$$
>  <compound>
Oc1n[nH]c2c1CCC2

>  <viability at 28.5 h, 10 µM [%]>
95.4

$$$$
>  <compound>
Cc1ccc(CNC(=O)OCCN2CCN(C)CC2)o1

>  <viability at 28.5 h, 10 µM [%]>
112

$$$$
>  <compound>
CN(CCc1cccnc1)CC(=O)Nc1cccc(Cl)c1

>  <viability at 28.5 h, 10 µM [%]>
93.1

$$$$
>  <compound>
O=C(NCc1ccc(F)cc1)N1CCCC(CO)C1 (stereo not drawn)

>  <viability at 28.5 h, 10 µM [%]>
102

$$$$
>  <compound>
CC(C)(C)OC(=O)NCC1CCC(C(=O)O)CC1 (stereo not drawn)

>  <viability at 28.5 h, 10 µM [%]>
94.5

$$$$
>  <compound>
CC[C@H](Cn1nc(-c2cccs2)ccc1=O)NC(=O)C1CCC1

>  <viability at 28.5 h, 10 µM [%]>
103

$$$$
>  <compound>
Cn1nc(C2CCCC2)cc1[C@H]1CN2CC[C@H]1C[C@@H]2CNC(=O)N1CCOCC1

>  <viability at 28.5 h, 10 µM [%]>
83.4

$$$$
>  <compound>
CC(C)c1ccc(NS(=O)(=O)c2cc3c(N4CCNCC4)nccc3s2)cc1 [CBK038104C]

>  <viability at 28.5 h, 10 µM [%]>
91.4

$$$$
>  <compound>
O=C1NC(=O)C(CCCCN2CCCC3(CCN(C(=O)c4ccoc4)C3)C2)N1 (stereo not drawn)

>  <viability at 28.5 h, 10 µM [%]>
96.8

$$$$
>  <compound>
O=C(Oc1ccc(F)cc1C(=O)/C=C/c1cccs1)c1ccc([N+](=O)[O-])cc1

>  <viability at 28.5 h, 10 µM [%]>
91.2

$$$$
>  <compound>
c1ccc2c(c1)OCC(COc1nccnc1OC1CCN(CC3CC3)CC1)O2 (stereo not drawn) [CBK083001T]

>  <viability at 28.5 h, 10 µM [%]>
96.5

$$$$
>  <compound>
Cc1ccc(SCC(=O)NCCCN2CCOCC2)cc1

>  <viability at 28.5 h, 10 µM [%]>
99.3

$$$$
>  <compound>
CCNC(=O)N1Cc2nc[nH]c2C[C@H]1C(=O)NCc1ccc(C#N)cc1

>  <viability at 28.5 h, 10 µM [%]>
96.2

$$$$
>  <compound>
COc1ccccc1-c1noc(C2CCN(S(=O)(=O)c3ccc(F)cc3)CC2)n1

>  <viability at 28.5 h, 10 µM [%]>
92.9

$$$$
>  <compound>
O=C(NCC1(N2CCOCC2)CCCCC1)c1ccccc1C(=O)c1ccc(F)cc1

>  <viability at 28.5 h, 10 µM [%]>
81

$$$$
>  <compound>
COc1cccc(C(NC(=O)Cc2ccc(-n3nnnc3C)cc2)c2ccccc2)c1 (stereo not drawn)

>  <viability at 28.5 h, 10 µM [%]>
93.4

$$$$
>  <compound>
CC(=O)c1cccc(NC(=O)N(CCO)C2CCc3ccccc32)c1 (stereo not drawn)

>  <viability at 28.5 h, 10 µM [%]>
93.4

$$$$
>  <compound>
NS(=O)(=O)c1ccc(NC(=S)NNS(=O)(=O)c2ccc(Br)cc2)cc1

>  <viability at 28.5 h, 10 µM [%]>
111

$$$$
>  <compound>
COc1ccc(-c2cnc3[nH]c(=O)n(Cc4cccs4)c3n2)c(OC)c1OC

>  <viability at 28.5 h, 10 µM [%]>
97.2

$$$$
>  <compound>
COc1cc([N+](=O)[O-])cc2cc(C(=O)NNC(=O)c3ccccc3Cl)c(=O)oc12

>  <viability at 28.5 h, 10 µM [%]>
92.8

$$$$
>  <compound>
O=C(O)c1ccccc1NS(=O)(=O)c1cccc(-n2sc3ccccc3c2=O)c1

>  <viability at 28.5 h, 10 µM [%]>
94.7

$$$$
